Collected pIC50 values appear next to each entry.
# measured_on: human Gal-1 (hGal-1)
# Sequence (P09382 2-135 limits assumed): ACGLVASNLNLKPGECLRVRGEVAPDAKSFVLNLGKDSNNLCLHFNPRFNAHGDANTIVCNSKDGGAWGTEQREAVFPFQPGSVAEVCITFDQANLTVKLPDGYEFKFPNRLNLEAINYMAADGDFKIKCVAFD
# method_description: Competitive binding assay: binding of biotinylated hGal-1 to microplate-adsorbed asialofetuin (ASF)
# recorded_conditions: Activities on hGal-1; mean values of several measurements
pIC50: −log10 of the molar value.
assay_endpoint: pIC50

compound=CO[C@@H]1[C@@H](n2cc(-c3ccc(C)c(F)c3F)nn2)[C@@H](O)[C@@H](CO)O[C@@H]1Cc1cc(C(C)(C)O)on1 assay_endpoint=pIC50 number=5.37
compound=CO[C@@H]1[C@@H](n2cc(-c3cc(F)c(F)c(F)c3)nn2)[C@@H](O)[C@@H](CO)O[C@@H]1Cc1cc(C2(C(F)F)CC2)no1 assay_endpoint=pIC50 number=6.04
compound="CO[C@@H]1[C@@H](n2cc(-c3cc(F)c(F)c(F)c3)nn2)[C@@H](O)[C@@H](CO)O[C@@H]1Cc1cc(C2CCNC2)on1 (mixture of isomers)" assay_endpoint=pIC50 number=5.35
compound=CC(C)C(=O)O[C@@H]1[C@@H](n2cc(-c3cc(F)c(F)c(F)c3)nn2)[C@@H](O)[C@@H](CO)O[C@@H]1Cc1cc(C2CCN(C(=O)OC(C)(C)C)CC2)on1 assay_endpoint=pIC50 number=4.56
compound=CO[C@@H]1[C@@H](n2cc(-c3cc(F)c(F)c(F)c3)nn2)[C@@H](O)[C@@H](CO)O[C@@H]1C[C@@H]1CC(C2CCN(S(=O)(=O)C(C)C)CC2)=NO1 assay_endpoint=pIC50 number=5.95
compound=CO[C@@H]1[C@@H](n2cc(-c3ccc(C)c(F)c3F)nn2)[C@@H](O)[C@@H](CO)O[C@@H]1Cc1cc(C(C)(C)C)on1 assay_endpoint=pIC50 number=5.48
compound=CO[C@@H]1[C@@H](n2cc(-c3cc(F)c(F)c(F)c3)nn2)[C@@H](O)[C@@H](CO)O[C@@H]1Cc1cc(C2COC2)on1 assay_endpoint=pIC50 number=5.52
compound=CC(C)(C)c1cc(C[C@H]2O[C@H](CO)[C@H](O)[C@H](n3cc(-c4cc(F)c(F)c(F)c4)nn3)[C@H]2OCC(=O)N2CCOCC2)no1 assay_endpoint=pIC50 number=5.66
compound=CO[C@@H]1[C@@H](n2cc(-c3ccc(C)c(F)c3F)nn2)[C@@H](O)[C@@H](CO)O[C@@H]1Cc1cc([C@H]2C[C@H]2O)on1 assay_endpoint=pIC50 number=5.15
compound="CO[C@@H]1[C@@H](n2cc(-c3nc(Br)cs3)nn2)[C@@H](O)[C@@H](CO)O[C@@H]1CC1CC(C2CCN(C(=O)OC(C)(C)C)CC2)=NO1 (stereo partly drawn)" assay_endpoint=pIC50 number=7.19
compound="CC(C)(C)OC(=O)N1CCC(C2=NOC(C[C@H]3O[C@H](CO)[C@H](O)[C@H](n4cc(-c5ccc(C#N)c(F)c5)nn4)[C@H]3O)C2)CC1 (stereo partly drawn)" assay_endpoint=pIC50 number=5.31
compound="CO[C@@H]1[C@@H](n2cc(-c3ccc(Cl)c(F)c3F)nn2)[C@@H](O)[C@@H](CO)O[C@@H]1Cc1cc(C(C)(CO)CCl)no1 (stereo partly drawn)" assay_endpoint=pIC50 number=5.79

###

# measured_on: human Gal-1 (hGal-1)
# method_description: Competitive binding assay: binding of biotinylated hGal-1 to microplate-adsorbed asialofetuin (ASF)
# recorded_conditions: Activities on hGal-1; mean values of several measurements
pIC50: −log10 of the molar value.
assay_endpoint: pIC50

compound="CO[C@@H]1[C@@H](n2cc(-c3ccc(Cl)c(F)c3F)nn2)[C@@H](O)[C@@H](CO)O[C@@H]1CC1CC(C2CCN(C(=O)OC(C)(C)C)CC2)=NO1 (stereo partly drawn) [Ex 1.140]" number=6.16
compound="CO[C@@H]1[C@@H](n2cc(-c3cc(F)c(F)c(F)c3)nn2)[C@@H](O)[C@@H](CO)O[C@@H]1C[C@@H]1CN(C2CCN([S@+]([O-])C(C)(C)C)CC2)C(=O)O1 (mixture of isomers) [Example 5.21]" number=5.06
compound="CO[C@@H]1[C@@H](n2cc(-c3cc(F)c(F)c(F)c3)nn2)[C@@H](O)[C@@H](CO)O[C@@H]1Cn1cc(C(C)(C)C)nn1 [Example 4.38]" number=5.74

###

# measured_on: human Gal-1 (hGal-1)
# method_description: Competitive binding assay: binding of biotinylated hGal-1 to microplate-adsorbed asialofetuin (ASF)
# recorded_conditions: Activities on hGal-1; mean values of several measurements
# Method: Evaluation of Compound Inhibitory Activity (IC50) The inhibitory activity of compounds is determined in competitive binding assays. This spectrophotometric assay measures the binding of biotinylated human Gal-3 (hGal-3) or human Gal-1 (hGal-1), respectively, to a microplate-adsorbed glycoprotein, asialofetuin (ASF) (Proc Natl Acad Sci USA. 2013 Mar. 26; 110(13):5052-7.). […] The calculated IC50 values may fluctuate depending on the daily assay performance. […]
assay_endpoint: IC50

compound="CO[C@@H]1[C@@H](n2cc(-c3cc(F)c(F)c(F)c3)nn2)[C@@H](O)[C@@H](CO)O[C@@H]1CC1CC(c2ccc3[nH]c(=O)oc3c2)=NO1 (stereo partly drawn)" assay_endpoint=IC50 result="4270 nM"
compound=CC(C)(C)c1cc(C[C@H]2O[C@H](CO)[C@H](O)[C@H](n3cc(-c4cc(F)c(F)c(F)c4)nn3)[C@H]2OCC(=O)O)on1 assay_endpoint=IC50 result="1740 nM"
compound=CO[C@@H]1[C@@H](n2cc(-c3cc(F)c(F)c(F)c3)nn2)[C@@H](O)[C@@H](CO)O[C@@H]1Cc1cc(C2CCN(C(=O)N3CCCC3)CC2)on1 assay_endpoint=IC50 result="920 nM"
compound=CC(C)(C)OC(=O)N1CCC(O)(c2cc(C[C@H]3O[C@H](CO)[C@H](O)[C@H](n4cc(-c5cc(F)c(F)c(F)c5)nn4)[C@H]3O)no2)CC1 assay_endpoint=IC50 result="620 nM"
compound=CO[C@@H]1[C@@H](n2cc(-c3cc(F)c(F)c(F)c3)nn2)[C@@H](O)[C@@H](CO)O[C@@H]1Cc1cc(C2(O)CCC2)no1 assay_endpoint=IC50 result="1770 nM"
compound="COc1ccc(C2=NOC(C[C@H]3O[C@H](CO)[C@H](O)[C@H](n4cc(-c5cc(F)c(F)c(F)c5)nn4)[C@H]3O)C2)cn1 (stereo partly drawn)" assay_endpoint=IC50 result="6800 nM"

###

Collected pIC50 values appear next to each entry.
# measured_on: human Gal-1 (hGal-1)
# method_description: Competitive binding assay: binding of biotinylated hGal-1 to microplate-adsorbed asialofetuin (ASF)
# recorded_conditions: Activities on hGal-1; mean values of several measurements
# Protocol: Evaluation of Compound Inhibitory Activity (IC50) The inhibitory activity of compounds is determined in competitive binding assays. This spectrophotometric assay measures the binding of biotinylated human Gal-3 (hGal-3) or human Gal-1 (hGal-1), respectively, to a microplate-adsorbed glycoprotein, asialofetuin (ASF) (Proc Natl Acad Sci USA. 2013 Mar. 26; 110(13):5052-7.). […] The calculated IC50 values may fluctuate depending on the daily assay performance. […]
pIC50: −log10 of the molar value.
assay_endpoint: pIC50

molecule="Cc1ccc(-c2cn([C@H]3[C@@H](O)[C@@H](CO)O[C@H](Cc4cc(C(C)(C)C)no4)[C@@H]3O)nn2)c(F)c1F [Example 2.50]" assay_endpoint=pIC50 sign== number=5.17
molecule="CO[C@@H]1[C@@H](n2cc(-c3ccc(C)c(F)c3F)nn2)[C@@H](O)[C@@H](CO)O[C@@H]1Cc1cc(C2CCN(C(C)=O)CC2)on1 [Ex 1.168]" assay_endpoint=pIC50 sign== number=6.03
molecule="CO[C@@H]1[C@@H](n2cc(-c3ccc(C)c(F)c3F)nn2)[C@@H](O)[C@@H](CO)O[C@@H]1Cc1cc(C2CCC2O)on1 (stereo partly drawn) [Ex 1.347]" assay_endpoint=pIC50 sign== number=5.09
molecule="CO[C@@H]1[C@@H](n2cc(-c3cc(F)c(F)c(F)c3)nn2)[C@@H](O)[C@@H](CO)O[C@@H]1Cc1cn(C2CCS(=O)(=O)CC2)nn1 [Example 4.16]" assay_endpoint=pIC50 sign== number=6.17
molecule="CO[C@@H]1[C@@H](n2cc(-c3cc(F)c(F)c(F)c3)nn2)[C@@H](O)[C@@H](CO)O[C@@H]1C[C@H]1CC(c2ccc3[nH]c(=O)oc3c2)=NO1 [Ex 1.29]" assay_endpoint=pIC50 sign=< number=4.00
molecule="CO[C@@H]1[C@@H](n2cc(-c3cc(F)c(F)c(F)c3)nn2)[C@@H](O)[C@@H](CO)O[C@@H]1Cc1cc(C2(O)CCNCC2)on1 [Ex 1.133]" assay_endpoint=pIC50 sign== number=4.97
molecule="CO[C@@H]1[C@@H](n2cc(-c3cc(F)c(F)c(F)c3)nn2)[C@@H](O)[C@@H](CO)O[C@@H]1Cc1cc(C(C)(C)CNC(=O)OC(C)(C)C)no1 [Ex 1.315]" assay_endpoint=pIC50 sign== number=5.66
molecule="CO[C@@H]1[C@@H](n2cc(-c3ccc(C)c(F)c3F)nn2)[C@@H](O)[C@@H](CO)O[C@@H]1Cc1cc(C2(C)CCCC2)on1 [Ex 1.274]" assay_endpoint=pIC50 sign== number=5.26
molecule="CO[C@@H]1[C@@H](n2cc(-c3cccc(F)c3)nn2)[C@@H](O)[C@@H](CO)O[C@@H]1Cc1cn(C2CCN(C(=O)OCc3ccccc3)CC2)nn1 [Example 4.35]" assay_endpoint=pIC50 sign== number=6.82
molecule="CCOC(=O)N1CCC(c2cc(C[C@H]3O[C@H](CO)[C@H](O)[C@H](n4cc(-c5cc(F)c(C)c(F)c5)nn4)[C@H]3OC)no2)CC1 [Ex 1.202]" assay_endpoint=pIC50 sign== number=5.40
molecule="OC[C@H]1O[C@H](Cc2cc(C3CCOCC3)on2)[C@H](O)[C@@H](n2cc(-c3cc(F)c(F)c(F)c3)nn2)[C@H]1O [Ex 1.60]" assay_endpoint=pIC50 sign== number=5.16
molecule="CO[C@@H]1[C@@H](n2cc(-c3cc(F)c(F)c(F)c3)nn2)[C@@H](O)[C@@H](CO)O[C@@H]1Cc1cc(C2CCN(S(=O)(=O)N(C)C)CC2)on1 [Example 3.58]" assay_endpoint=pIC50 sign== number=5.73
